tested on: E. aerogenes Ea-294, Ea-298; test: MIC (microdilution) against E. aerogenes strains devoid of AcrAB / TolC; conditions: Klebsiella aerogenes
Residues, ends and D or L forms follow the SMILES beside them. *: point of attachment. βNA = c1ccc2cc(N*)ccc2c1
Kindly supply the reported MIC values for the records listed here.
Give bare numbers, in µM.

Some entries whose results are on file:
CN1CCN(CCCN2C(=O)/C(=C/c3c4ccccc4cc4ccccc34)N=C2N)CC1.Cl; 500
NC(N)=NCCC[C@H](NC(=O)[C@@H](N)Cc1ccccc1)C(=O)Nc1ccc2ccccc2c1 [PaβN] (H-Phe-Arg-βNA); 125
O=C(N[C@H](CO)[C@H](O)c1ccc([N+](=O)[O-])cc1)C(Cl)Cl; 200
CN1CCN(CCCN2C(=O)/C(=C/c3cc4ccccc4c4ccccc34)N=C2N)CC1.Cl; 500
CC[C@H]1OC(=O)[C@H](C)[C@@H](O[C@H]2C[C@@](C)(OC)[C@@H](O)[C@H](C)O2)[C@H](C)[C@@H](O[C@@H]2O[C@H](C)C[C@H](N(C)C)[C@H]2O)[C@](C)(O)C[C@@H](C)C(=O)[C@H](C)[C@@H](O)[C@]1(C)O; 5

Okay, here is my list. What is MIC for each of these?
1. Cl.NC1=N/C(=C\c2c3ccccc3cc3ccccc23)C(=O)N1CCCN1CCOCC1
2. CN1CCN(CCCN2C(=O)/C(=C/c3ccc4ccccc4c3)N=C2N)CC1.Cl
3. C[C@H]1c2cccc(O)c2C(=O)C2=C(O)[C@]3(O)C(=O)C(C(N)=O)=C(O)[C@@H](N(C)C)[C@@H]3[C@@H](O)[C@@H]21
4. CCn1cc(C(=O)O)c(=O)c2cc(F)c(N3CCNCC3)cc21
5. CN1CCN(CCCN2C(=O)/C(=C/c3ccc(Oc4ccccc4)cc3)N=C2N)CC1
6. Cl.NC1=N/C(=C\c2cccc(Oc3ccccc3)c2)C(=O)N1CCCN1CCOCC1

Reply:
1: 2000; 2: 1000; 3: 5; 4: 50; 5: 1000; 6: 500

---

tested on: E. aerogenes CM-64; assay: MIC (microdilution) against E. aerogenes CM-64 overexpressing AcrAB-TolC; conditions: Klebsiella aerogenes, CM64
Residues, ends and D or L forms follow the SMILES beside them. *: point of attachment. βNA = c1ccc2cc(N*)ccc2c1
RECORDED_METRIC: MIC (µM)
Give bare numbers, in µM.

CN1CCN(CCCN2C(=O)/C(=C/c3ccc(Oc4ccccc4)cc3)N=C2N)CC1; 2000
O=C(N[C@H](CO)[C@H](O)c1ccc([N+](=O)[O-])cc1)C(Cl)Cl; 1600
CC[C@H]1OC(=O)[C@H](C)[C@@H](O[C@H]2C[C@@](C)(OC)[C@@H](O)[C@H](C)O2)[C@H](C)[C@@H](O[C@@H]2O[C@H](C)C[C@H](N(C)C)[C@H]2O)[C@](C)(O)C[C@@H](C)C(=O)[C@H](C)[C@@H](O)[C@]1(C)O; 700
CCn1cc(C(=O)O)c(=O)c2cc(F)c(N3CCNCC3)cc21; 6
CN1CCN(CCCN2C(=O)/C(=C/c3cc4ccccc4c4ccccc34)N=C2N)CC1.Cl; 1000

Okay, here is my list. What is MIC for each of these?
1. NC(N)=NCCC[C@H](NC(=O)[C@@H](N)Cc1ccccc1)C(=O)Nc1ccc2ccccc2c1 [PaβN] (H-Phe-Arg-βNA)
2. C[C@H]1c2cccc(O)c2C(=O)C2=C(O)[C@]3(O)C(=O)C(C(N)=O)=C(O)[C@@H](N(C)C)[C@@H]3[C@@H](O)[C@@H]21

Reply:
1: 500; 2: 72
